Values were extracted from PubChem BioAssay AID1918995.

# System: 324938-238-R-J1-PDC complex spheroid growth, % test/control;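 also: spheroids exposed to agents for seven days before viability read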
# experiment.notes: Anticancer human tumor 324938-238-R-J1-PDC patient-derived bladder carcinoma cell line growth inhibition [AhR]
# study.conditions: curve of first compound; second compound 3.16 µM
// boundary case: IC50 equal to 3000 nM maps to NO; strictly smaller maps to YES

Worked cases, answers included:
Is the reported IC50 for O=C(C=Cc1cccc(S(=O)(=O)Nc2ccccc2)c1)NO + Cc1cncc(-c2nc(NCCc3c[nH]c4ccccc34)c3ncn(C(C)C)c3n2)c1 strictly below 3000 nM?
NO

Is the reported IC50 for Nc1ccccc1NC(=O)c1ccc(CNC(=O)OCc2cccnc2)cc1 + Cc1ccccc1N=Nc1ccc(NC(=O)c2ccnn2C)c(C)c1 strictly below 3000 nM?
YES

Is the reported IC50 for CC1(C)CCC(CN2CCN(c3ccc(C(=O)NS(=O)(=O)c4ccc(NCC5CCOCC5)c([N+](=O)[O-])c4)c(Oc4cnc5[nH]ccc5c4)c3)CC2)=C(c2ccc(Cl)cc2)C1 + Cc1ccccc1N=Nc1ccc(NC(=O)c2ccnn2C)c(C)c1 strictly below 3000 nM?
NO

Is the reported IC50 for Cn1ncnc1C1c2n[nH]c(=O)c3cc(F)cc(c23)NC1c1ccc(F)cc1 (stereo unspecified) + CC(CO)NC(=O)c1cc(-c2ccc(Cl)cc2)nn(-c2cnn(C)c2)c1=O strictly below 3000 nM?
YES

Now, please, on to the next molecule.
Is the reported IC50 for O=C(C=Cc1cccc(S(=O)(=O)Nc2ccccc2)c1)NO + Cc1ccccc1N=Nc1ccc(NC(=O)c2ccnn2C)c(C)c1 strictly below 3000 nM?
YES
